- assay_system: Aldose Reductase (Bos taurus)
- Construct: The enzyme is extracted from beef eye lenses; from tissue; host or cells: beef eye lenses
- experimental_details: Inhibition of aldose reductase in vitro (enzyme from beef eye lenses, glyceraldehyde substrate)
- Type: biochemical
- condition_set: 10^-4 mole/l, in DMF solution; read-out: percentages of inhibition (aldose reductase)
- Description: Inhibition of Aldose Reductase In Vitro The reoxidation of NADPH coupled to the enzymatic reaction was followed spectrophotometrically at 340 nm.
parameter: inhibition at 100 µM (%)

1. C[C@@H]1O[C@@H](OC[C@H]2O[C@@H](Oc3c(-c4ccc(O)c(O)c4)oc4cc(O)cc(O)c4c3=O)[C@H](O)[C@@H](O)[C@@H]2O)[C@@H]2OC(c3ccc(O)cc3)O[C@@H]2[C@H]1O (stereo partly drawn): 80
2. C[C@@H]1O[C@@H](Oc2c(-c3cc(O)c(O)c(O)c3)oc3cc(O)cc(O)c3c2=O)[C@@H]2OC(C)(C)O[C@@H]2[C@H]1O: 93
3. C[C@@H]1O[C@@H](OC[C@H]2O[C@@H](Oc3c(-c4ccc(O)c(O)c4)oc4cc(O)cc(O)c4c3=O)[C@H](O)[C@@H](O)[C@@H]2O)[C@@H]2OC3(CCC4CCCCC4C3)O[C@@H]2[C@H]1O (stereo partly drawn): 67

* * *

- Test system: carragenin edema
- experimental_details: Anti-inflammatory activity: carragenin edema test
- Assay type: in vivo
- condition_set: Rattus norvegicus, ip, 6 h, 200 mg/kg i.p., substantially alkaline pH solution, 6 h; read-out: % inhibition of carragenin edema
parameter: inhibition in vivo at 200 mg/kg (%)
Just the number please, in %, no unit attached.

1) CC1(C)OC[C@H]2O[C@@H](Oc3cc4ccc(=O)oc4cc3O)[C@H](O)[C@@H](O)[C@@H]2O1 [No. 15]: 17
2) O=c1ccc2cc(O[C@@H]3O[C@@H]4COC5(CCCCC5)O[C@H]4[C@H](O)[C@H]3O)c(O)cc2o1 [No. 16]: 24

Q) Report inhibition in vivo at 200 mg/kg for COc1ccc(-c2cc(=O)c3c(O)cc(O[C@@H]4O[C@H](CO[C@@H]5O[C@@H](C)[C@H](O)[C@H]6OC(C)(C)O[C@@H]56)[C@@H](O)[C@H](O)[C@H]4O)cc3o2)cc1O [No. 32] please.
A) 20

Q) Report inhibition in vivo at 200 mg/kg for COc1ccc(C2CC(=O)c3c(O)cc(O[C@@H]4O[C@H](CO[C@@H]5O[C@@H](C)[C@H](O)[C@H]6OC(C)(C)O[C@@H]56)[C@@H](O)[C@H](O)[C@H]4O)cc3O2)cc1O (stereo partly shown) [No. 18] please.
A) 55
